- System: PC-3 prostate
- PROCEDURE_TEXT: NCI tumour cell line growth inhibition, 48 h
Where a SMILES comes first, the peptide text is derived from it. The star is where a group is joined. Boc = CC(C)(C)OC(=O)*
Each entry below lists one item and its recorded TGI value.

GET /values?item= `O=S(=O)(O)c1cc(S(=O)(=O)O)c2c(N=Nc3ccccc3)c(O)ccc2c1` &system= PC-3 prostate returns TGI: > 100 µM

Considering COC(=O)C(Cc1c[nH]c2ccccc12)NC(=O)C(Cc1c[nH]c2ccccc12)NC(=O)C(Cc1c[nH]c2ccccc12)NC(=O)C(Cc1c[nH]c2ccccc12)NC(=O)C(Cc1c[nH]c2ccccc12)NC(=O)OC(C)(C)C (stereo not drawn) (Boc-WWWWW-OMe; configuration not given here) , its TGI with PC-3 prostate was recorded as > 100 µM

Result for `CS(=O)(=O)c1ccc(Oc2nccc(-c3c(-c4ccc(F)cc4)ncn3C3CCNCC3)n2)cc1` , tested on PC-3 prostate, TGI: > 25 µM
